- assayOverview: Kinetic solubility of the compound
- Assay type: physicochemical
- studyConditions: read-out: Kinetic_solubility
resultType: solubility kinetic (µM)

compound: COCCNc1nc2ccc(C#CC3(O)CCCCC3)cc2n1-c1ccnc(N)n1
measurementUnit: µM
valueMeasured: 30

###

- assayOverview: Plasma protein binding in human plasma
- Assay type: ADME, cell-free
- studyConditions: read-out: PPB (converted)
resultType: fraction unbound

compound: COCCNc1nc2ccc(C#CC3(O)CCCCC3)cc2n1-c1ccnc(N)n1
resultType: fraction unbound
valueMeasured: 0.04

###

- studyTarget: Serine/threonine-protein kinase PAK 6 (Homo sapiens)
- Sequence (Q9NQU5 whole entry): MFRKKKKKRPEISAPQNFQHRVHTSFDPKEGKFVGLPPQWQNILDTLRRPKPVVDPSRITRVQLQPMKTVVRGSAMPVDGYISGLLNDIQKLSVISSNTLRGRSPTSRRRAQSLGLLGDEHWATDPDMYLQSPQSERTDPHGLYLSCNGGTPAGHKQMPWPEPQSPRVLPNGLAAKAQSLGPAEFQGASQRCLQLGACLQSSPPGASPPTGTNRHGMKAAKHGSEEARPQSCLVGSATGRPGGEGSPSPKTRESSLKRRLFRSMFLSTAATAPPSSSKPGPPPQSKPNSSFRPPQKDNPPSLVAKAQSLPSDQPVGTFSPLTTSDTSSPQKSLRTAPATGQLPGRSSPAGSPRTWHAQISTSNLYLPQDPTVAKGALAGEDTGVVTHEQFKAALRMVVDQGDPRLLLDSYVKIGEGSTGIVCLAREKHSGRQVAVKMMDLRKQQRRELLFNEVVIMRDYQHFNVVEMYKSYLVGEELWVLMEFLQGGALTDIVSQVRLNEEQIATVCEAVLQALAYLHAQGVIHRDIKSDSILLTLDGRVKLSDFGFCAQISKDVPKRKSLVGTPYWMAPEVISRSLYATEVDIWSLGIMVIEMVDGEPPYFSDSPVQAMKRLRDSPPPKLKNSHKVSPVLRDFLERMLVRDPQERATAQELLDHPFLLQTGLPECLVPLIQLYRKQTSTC

compound: COCCNc1nc2ccc(C#CC3(O)CCCCC3)cc2n1-c1ccnc(N)n1
IC50 / nM: 36
